Data credit: ChEMBL document CHEMBL1201862

# Assay system: High affinity choline transporter 1 (Homo sapiens)
# Sequence (Q9GZV3 whole entry): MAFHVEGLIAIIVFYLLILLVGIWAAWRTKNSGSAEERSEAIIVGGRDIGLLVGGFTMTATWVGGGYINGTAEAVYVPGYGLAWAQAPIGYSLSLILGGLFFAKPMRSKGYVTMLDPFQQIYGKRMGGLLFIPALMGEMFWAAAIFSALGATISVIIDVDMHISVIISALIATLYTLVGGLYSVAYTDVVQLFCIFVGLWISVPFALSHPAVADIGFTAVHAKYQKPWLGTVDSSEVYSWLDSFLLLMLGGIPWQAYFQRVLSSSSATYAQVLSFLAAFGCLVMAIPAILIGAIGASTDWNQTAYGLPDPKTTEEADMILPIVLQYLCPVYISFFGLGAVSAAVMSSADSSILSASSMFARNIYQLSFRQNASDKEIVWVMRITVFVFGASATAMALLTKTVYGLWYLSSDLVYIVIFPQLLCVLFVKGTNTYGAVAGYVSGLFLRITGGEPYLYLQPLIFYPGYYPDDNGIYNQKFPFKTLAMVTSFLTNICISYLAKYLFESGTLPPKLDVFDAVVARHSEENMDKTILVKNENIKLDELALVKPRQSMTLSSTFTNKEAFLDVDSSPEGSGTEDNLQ
# Protocol summary: CHT inhibitors, dose response, cell-based, 5-point CRC, membrane potential dye (AID 504840)
# Format: functional
Activity calls are given as the source filed them. The rule behind the calls is not given here.

>  <Record smiles>
Fc1ccccc1CCNc1c2c(nc3ncnn13)CCCC2

>  <IC50>
13.8 µM (active)

$$$$
>  <Record smiles>
CCOCCCNC(=O)/C(C#N)=C/c1ccc([N+](=O)[O-])o1

>  <IC50>
4.79 µM (active)

$$$$
>  <Record smiles>
Cc1ccc(NC(S)=Nc2ccc3nc(-c4ccccn4)c(-c4ccccn4)nc3c2)cc1C

>  <IC50>
13.2 µM (active)

$$$$
>  <Record smiles>
O=S(=O)(c1ccccc1F)N1CCN(CCc2ccccc2)CC1

>  <IC50>
5.45 µM (active)

$$$$
>  <Record smiles>
O=C(NCc1cccnc1)c1ccc(COc2ccccc2Cl)o1

>  <IC50>
14.5 µM (active)

$$$$
>  <Record smiles>
CCCn1c2ccccc2c2cnn(CC(=O)OC)c(=O)c21

>  <IC50>
15.8 µM (active)

$$$$
